# TEST SYSTEM: human α7-nAChR (Homo sapiens)
# Sequence (P36544 23-502): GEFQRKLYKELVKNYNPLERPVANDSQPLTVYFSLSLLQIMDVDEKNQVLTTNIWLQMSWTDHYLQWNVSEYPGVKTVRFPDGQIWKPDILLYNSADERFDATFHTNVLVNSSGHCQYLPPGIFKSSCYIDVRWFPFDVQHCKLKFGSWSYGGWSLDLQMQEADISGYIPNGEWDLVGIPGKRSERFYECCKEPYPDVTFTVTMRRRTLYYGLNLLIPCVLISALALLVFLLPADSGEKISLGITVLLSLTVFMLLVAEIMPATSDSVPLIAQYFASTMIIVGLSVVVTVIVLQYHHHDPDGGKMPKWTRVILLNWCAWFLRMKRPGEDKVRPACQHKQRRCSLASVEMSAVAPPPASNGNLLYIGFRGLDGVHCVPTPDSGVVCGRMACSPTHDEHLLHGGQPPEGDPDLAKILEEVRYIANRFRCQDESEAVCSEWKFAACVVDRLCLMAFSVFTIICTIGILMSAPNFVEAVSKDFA
# EXPERIMENT NOTES: Two-electrode voltage clamp, antagonism of currents activated by 1 mM ACh, test compound coapplied, X. laevis oocytes
# Assay type: cell-based
# CONDITION SET: coapplied with 1 mM ACh, up to 100 μM; 95% confidence interval in parentheses; NA = not inhibited even at 100 μM; read-out: α7 IC50 (peak current)
The following molecules are listed with their measured IC50 values.
READOUT LABEL: IC50 (µM)

1. CC[N+](CC)(CC)CCOc1ccc(-c2ccc3cc[nH]c3c2)cc1.[I-] [Compound 30]; 1.91
2. CC[N+](CC)(CC)CCOc1ccc(NC(=O)c2ccccc2)cc1 [Compound 25]; 25.7
3. CC[N+](CC)(CC)CCOc1ccc(-c2nc3ccccc3o2)cc1.[I-] [Compound 28]; 1.78
4. CC[N+](CC)(CC)CCOc1ccc(-c2ccc3[nH]ccc3c2)cc1.[I-] [Compound 31]; 2.01
5. CC[N+](CC)(CC)CCOc1ccc(-c2nc3ccccc3[nH]2)cc1 [Compound 29]; 182
6. CC[N+](CC)(CC)CCOc1ccc(/N=N/c2ccccc2)cc1.[I-] [Compound 27]; 11.2

----------
The following compounds are listed with their measured pKi values.
# TEST SYSTEM: human α3β4-nAChR subtype (Homo sapiens, UniProt P30926+P32297)
# Sequence (P32297 32-505): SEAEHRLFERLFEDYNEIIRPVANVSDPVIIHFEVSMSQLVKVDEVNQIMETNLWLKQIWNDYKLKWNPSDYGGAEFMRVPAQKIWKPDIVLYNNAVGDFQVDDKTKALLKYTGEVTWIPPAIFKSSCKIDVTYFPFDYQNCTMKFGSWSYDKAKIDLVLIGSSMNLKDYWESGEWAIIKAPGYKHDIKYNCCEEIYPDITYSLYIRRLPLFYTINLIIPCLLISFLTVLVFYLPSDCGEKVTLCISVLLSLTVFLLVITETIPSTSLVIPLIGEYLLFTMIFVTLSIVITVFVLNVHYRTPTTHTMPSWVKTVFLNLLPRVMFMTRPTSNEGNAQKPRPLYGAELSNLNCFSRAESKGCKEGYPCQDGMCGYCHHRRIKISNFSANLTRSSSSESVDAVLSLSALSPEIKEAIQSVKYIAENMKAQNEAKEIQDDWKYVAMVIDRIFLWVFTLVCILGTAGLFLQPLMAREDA
# Sequence (P30926 22-498): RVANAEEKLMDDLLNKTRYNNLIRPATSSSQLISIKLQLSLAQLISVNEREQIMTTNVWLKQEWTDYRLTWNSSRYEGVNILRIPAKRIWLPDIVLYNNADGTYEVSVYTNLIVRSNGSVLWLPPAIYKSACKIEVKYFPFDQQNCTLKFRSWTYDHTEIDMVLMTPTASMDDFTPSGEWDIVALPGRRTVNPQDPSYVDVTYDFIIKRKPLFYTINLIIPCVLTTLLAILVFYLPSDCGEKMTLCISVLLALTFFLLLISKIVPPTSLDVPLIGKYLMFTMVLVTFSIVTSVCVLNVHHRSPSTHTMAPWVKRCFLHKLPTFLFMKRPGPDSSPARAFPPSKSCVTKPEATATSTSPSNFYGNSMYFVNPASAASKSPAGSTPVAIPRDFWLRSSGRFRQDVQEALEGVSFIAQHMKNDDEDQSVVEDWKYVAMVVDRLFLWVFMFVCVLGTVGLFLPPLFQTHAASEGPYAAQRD
# EXPERIMENT NOTES: Competition binding with [3H]epibatidine, membranes of SH-EP1 cells stably transfected with α3 and β4
# CONDITION SET: human α3β4 expressed in SH-EP1 cells; confidence interval in parentheses; read-out: α3β4-nAChR [3H]-Epi Ki
pKi: −log10 of the molar value.
READOUT LABEL: pKi

1. CC[N+](CC)(CC)CCOc1ccc(/C=C/c2cccc(O)c2)cc1; 6.00
2. CC[N+](CC)(CC)CCOc1ccc(OCc2ccccc2)cc1; 5.33
3. CC[N+](CC)(CC)CCOc1ccc(/C=C/c2ccc(C(F)(F)F)cc2)cc1; 6.06
4. CC[N+](CC)(CC)CCOc1ccc(/C=C/c2ccc(O)cc2)cc1; 6.06
5. CC[N+](CC)(CC)CCOc1ccc(-c2ccccc2)cc1; 6.36
6. CC[N+](CC)(CC)CCOc1ccccc1; 5.00
7. CC[N+](CC)(CC)CCOc1ccc(-c2ccc3[nH]ccc3c2)cc1.[I-]; 6.75
8. CC[N+](CC)(CC)CCOc1ccc(/C=C/c2ccc3ccccc3c2)cc1; 6.37
9. CC[N+](CC)(CC)CCOc1ccc(-c2ccc3ccccc3c2)cc1; 6.34
10. CC[N+](CC)(CC)CCOc1ccc(NC(=O)c2ccccc2)cc1; 5.97
11. CC[N+](CC)(CC)CCOc1ccc(/C=C/c2ccc(OC)cc2)cc1; 6.73
